Ref: ChEMBL document CHEMBL3988442

Kindly state Percent Effect for each of the entries shown.
tested on: Trypanosoma brucei; assay: Trypanosoma brucei 72 hour study; type: functional, organism-based; design: scale not given: in the data most compounds retested in dose-response had high values; details: 30.3 µM; […]
Screen size: about 66,000 compounds; about 960 (1.5%) showed an effect of 50% or more. The sample as a whole holds a higher share of strong results than the screen did.
Dear colleague, please return just the value in %, with no unit written.

**Query** Find the recorded Percent Effect belonging to Cc1cnc(N2CC[C@@H]3CN(CCC(C)C)S(=O)(=O)[C@@H]3CC2)nc1 and report it.
**Result** 13.68

**Query** Find the recorded Percent Effect belonging to CCc1cnc(N2CC[C@@H]3CN(CCC(C)C)S(=O)(=O)[C@@H]3CC2)nc1.O=C(O)C(F)(F)F and report it.
**Result** 50.26

**Query** Find the recorded Percent Effect belonging to CCn1ccc(C(=O)N2CCOC(c3nc(-c4cccs4)no3)C2)n1 (stereo not given) and report it.
**Result** 21.37

**Query** Find the recorded Percent Effect belonging to CC(CNC(=O)c1ccc(F)cc1I)N1CCCC1 (stereo not given) and report it.
**Result** 0.5476

**Query** Find the recorded Percent Effect belonging to CCCn1cc(C(=O)N2CCOC(c3nc(-c4cccs4)no3)C2)cn1 (stereo not given) and report it.
**Result** 19.04

* * *

system: Trypanosoma brucei; assay: Trypanosoma brucei 72 hour study; type: functional, organism-based; set-up: scale not given: in the data most compounds retested in dose-response had high values; settings: 30 µM; 30.03 µM
Hit rate of the full screen: of about 66,000 compounds, about 960 (1.5%) showed an effect of 50% or more. The sample holds strong results, similar compounds and a random draw of the others, so the mix is not that of the screen.
measure-name: Percent Effect
Write the quantity with the unit trailing the number.

**Query** Param readout = Percent Effect; param system = Trypanosoma brucei; param query = CN(Cc1ccco1)[C@@H]1CN(Cc2ccsc2)C[C@@H]2CCCO[C@@H]21.O=C(O)C(F)(F)F.O=C(O)C(F)(F)F ; response: value
**Result** 27.39%

**Query** Param readout = Percent Effect; param system = Trypanosoma brucei; param query = Cc1nc[nH]c1CN1CCC2(CC1)CC(Nc1ncccn1)CO2.O=C(O)C(F)(F)F (centres undefined) ; response: value
**Result** -22.29%

**Query** Param readout = Percent Effect; param system = Trypanosoma brucei; param query = CC(C)NC(=O)CCNC(=O)CCc1cc(Br)cs1 ; response: value
**Result** -16.2%

**Query** Param readout = Percent Effect; param system = Trypanosoma brucei; param query = Cc1cccc(OCCC(=O)N(C)CC(C)C#N)c1C (centres undefined) ; response: value
**Result** 9.501%

**Query** Param readout = Percent Effect; param system = Trypanosoma brucei; param query = CN(C(=O)Cc1ccc(NC(=O)NC2CCC2)cc1)c1ccccc1 ; response: value
**Result** -6.814%

**Query** Param readout = Percent Effect; param system = Trypanosoma brucei; param query = COc1ccc(C(=O)N2C[C@@H](NC(=O)N(C)C)[C@H](C(C)C)C2)c(OC)n1 ; response: value
**Result** -11.49%

**Query** Param readout = Percent Effect; param system = Trypanosoma brucei; param query = Cc1ccsc1C(=O)N1CCC2(CC(C(=O)N(C)C(C)C)=NO2)C1 (centres undefined) ; response: value
**Result** -54.71%

**Query** Param readout = Percent Effect; param system = Trypanosoma brucei; param query = COC(=O)CN1CC(c2nc(Cc3ccccc3)no2)C1.O=C(O)C(=O)O ; response: value
**Result** 101%

**Query** Param readout = Percent Effect; param system = Trypanosoma brucei; param query = O=C1CC(c2cccc(O)c2)c2c(c(C(=O)O)cn2-c2ccccc2)N1 (centres undefined) ; response: value
**Result** 55.14%

**Query** Param readout = Percent Effect; param system = Trypanosoma brucei; param query = Cc1nc(C)n(CC2CCCN2Cc2nc(N)c3ccccc3n2)n1 (centres undefined) ; response: value
**Result** -26.66%

**Query** Param readout = Percent Effect; param system = Trypanosoma brucei; param query = Cc1cccc(OCCC(=O)N(C)CCC#N)c1C ; response: value
**Result** 43.96%

**Query** Param readout = Percent Effect; param system = Trypanosoma brucei; param query = CCc1ccc(C(=O)Nc2ccc3c(c2)N(C)CCN(C)C3)o1 ; response: value
**Result** -2.445%

**Query** Param readout = Percent Effect; param system = Trypanosoma brucei; param query = COc1ccnc(N2C[C@@H]3CC[C@H](C2)N(CC2CCC2)C3=O)n1 ; response: value
**Result** 0.242%

**Query** Param readout = Percent Effect; param system = Trypanosoma brucei; param query = COc1ccc(N2Cc3nc(=O)n(C(C)C)n3C2=O)cc1 ; response: value
**Result** -34%

**Query** Param readout = Percent Effect; param system = Trypanosoma brucei; param query = COc1ccc(C)cc1CN1CCCC1c1noc(C2CC2)n1 (centres undefined) ; response: value
**Result** 105.3%

**Query** Param readout = Percent Effect; param system = Trypanosoma brucei; param query = COc1ccc(CN2CCCC2Cn2nc(C)nc2C)cc1F (centres undefined) ; response: value
**Result** 13.69%

**Query** Param readout = Percent Effect; param system = Trypanosoma brucei; param query = COc1ccc(C)cc1CN1CCCC1Cn1nc(C)nc1C (centres undefined) ; response: value
**Result** 103.3%

**Query** Param readout = Percent Effect; param system = Trypanosoma brucei; param query = COc1c(C)cnc(CN2CCCC2c2noc(C3CC3)n2)c1C (centres undefined) ; response: value
**Result** -15.93%

**Query** Param readout = Percent Effect; param system = Trypanosoma brucei; param query = CCCOCCCNc1nccc(-c2cn(C)nc2C)n1 ; response: value
**Result** 60.81%

**Query** Param readout = Percent Effect; param system = Trypanosoma brucei; param query = Cc1ccc(CNC(=O)NCc2nccn2C)c(OC(C)(C)C)c1 ; response: value
**Result** -10.65%

**Query** Param readout = Percent Effect; param system = Trypanosoma brucei; param query = COC(=O)CNC(=O)CCc1cc(Cl)cs1 ; response: value
**Result** 30.07%

**Query** Param readout = Percent Effect; param system = Trypanosoma brucei; param query = O=C1CC(c2ccccc2)c2c(c(C(=O)O)cn2-c2ccccc2)N1 (centres undefined) ; response: value
**Result** -0.2399%

**Query** Param readout = Percent Effect; param system = Trypanosoma brucei; param query = O=C1CC(N(C(=O)Cc2csc(-c3ccccc3)n2)C2CC2)C(=O)N1 (centres undefined) ; response: value
**Result** 106%

**Query** Param readout = Percent Effect; param system = Trypanosoma brucei; param query = Cc1ccc(C(C)N(C)Cc2nc3c(cnn3C)c(=O)[nH]2)cc1 (centres undefined) ; response: value
**Result** 18.7%

**Query** Param readout = Percent Effect; param system = Trypanosoma brucei; param query = COCC1CN(Cc2ccoc2)Cc2nn(C)cc21.O=C(O)C(F)(F)F (centres undefined) ; response: value
**Result** 26.18%

**Query** Param readout = Percent Effect; param system = Trypanosoma brucei; param query = Cc1ccc(S(=O)(=O)N2CC[C@H]3CO[C@H](CN(C)C)[C@H]3C2)cc1.O=C(O)C(F)(F)F ; response: value
**Result** -6.145%

**Query** Param readout = Percent Effect; param system = Trypanosoma brucei; param query = CCC(C(=O)Nc1ccc2c(C)n[nH]c2c1)N1CCCC1=O (centres undefined) ; response: value
**Result** 6.301%

**Query** Param readout = Percent Effect; param system = Trypanosoma brucei; param query = CCC(C)NC(=O)Cn1c(Nc2cc(C)cc(C)c2)nc(C)cc1=O (centres undefined) ; response: value
**Result** -43.03%

**Query** Param readout = Percent Effect; param system = Trypanosoma brucei; param query = CN(C)C(=O)[C@H]1C[C@H]2[C@H](CCN2Cc2ccc3c(c2)OCO3)O1.O=C(O)C(F)(F)F ; response: value
**Result** 17.59%

**Query** Param readout = Percent Effect; param system = Trypanosoma brucei; param query = COCCN1CC[C@@H]2CN(Cc3nccn3C)C[C@@H]2C1.O=C(O)C(F)(F)F.O=C(O)C(F)(F)F ; response: value
**Result** 27.97%

**Query** Param readout = Percent Effect; param system = Trypanosoma brucei; param query = CC(C)NC(=O)CCNC(=O)CCc1cc(Cl)cs1 ; response: value
**Result** 67.45%

**Query** Param readout = Percent Effect; param system = Trypanosoma brucei; param query = Cc1nc(CN2CCCC2Cn2cccn2)nc2ccccc12 (centres undefined) ; response: value
**Result** -97.44%

**Query** Param readout = Percent Effect; param system = Trypanosoma brucei; param query = CC(C)Cc1noc(CN2CCOCC2C)n1 (centres undefined) ; response: value
**Result** -14.5%

**Query** Param readout = Percent Effect; param system = Trypanosoma brucei; param query = Cc1cccc(OCCC(=O)N(C)CCNS(C)(=O)=O)c1C ; response: value
**Result** 57.14%

**Query** Param readout = Percent Effect; param system = Trypanosoma brucei; param query = Cc1ccccc1N1CCCN(CC2(O)CCCNC2)CC1 (centres undefined) ; response: value
**Result** 24.63%

**Query** Param readout = Percent Effect; param system = Trypanosoma brucei; param query = O=C(c1cc(=O)n(-c2ccccc2)[nH]1)N1CCOC(C(F)(F)F)C1 (centres undefined) ; response: value
**Result** 25.14%

**Query** Param readout = Percent Effect; param system = Trypanosoma brucei; param query = O=C(Nc1cccnc1)NC1CCN(c2ccccc2OC(F)F)C1 (centres undefined) ; response: value
**Result** -24.57%

**Query** Param readout = Percent Effect; param system = Trypanosoma brucei; param query = CCn1ccnc1CNCc1ccc(C)cc1OC(C)(C)C ; response: value
**Result** 59.89%

**Query** Param readout = Percent Effect; param system = Trypanosoma brucei; param query = Cc1nnc(CN2C[C@H]3CC[C@@H]2CN(C2Cc4ccccc4C2)C3)o1 ; response: value
**Result** 19.71%

**Query** Param readout = Percent Effect; param system = Trypanosoma brucei; param query = CC(C)OCCCN(CC(=O)N1CCNCC1)C(=O)c1ccc(F)cc1.O=C(O)C(F)(F)F ; response: value
**Result** -6.979%

**Query** Param readout = Percent Effect; param system = Trypanosoma brucei; param query = O=C(Nc1ccncc1)NC1CCN(c2ccccc2OC(F)F)C1 (centres undefined) ; response: value
**Result** 57.33%

**Query** Param readout = Percent Effect; param system = Trypanosoma brucei; param query = O=C1CC(N(C(=O)c2csc(-c3ccccc3)n2)C2CC2)C(=O)N1 (centres undefined) ; response: value
**Result** 9.836%

**Query** Param readout = Percent Effect; param system = Trypanosoma brucei; param query = CCC(C)(COc1ncccc1Cl)NCC(=O)NCC(C)C (centres undefined) ; response: value
**Result** -31.89%

**Query** Param readout = Percent Effect; param system = Trypanosoma brucei; param query = Cc1ccc(C)c(N2CCN(CC3(O)CCNC3)CC2)c1 (centres undefined) ; response: value
**Result** 106.8%
